Where these numbers come from: patent US11872236B2

Overview of recorded inhibition at 200 µM for various compounds
MEASUREMENT TARGET: alpha-A crystalline (Homo sapiens)
Sequence (P02489 whole entry): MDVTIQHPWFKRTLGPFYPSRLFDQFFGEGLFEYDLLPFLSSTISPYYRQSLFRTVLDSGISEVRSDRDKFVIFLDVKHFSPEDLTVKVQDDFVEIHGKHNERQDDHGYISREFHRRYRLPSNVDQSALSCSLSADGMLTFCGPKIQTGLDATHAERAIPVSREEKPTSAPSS
TEST NAME: Ca+2 and UVC induced aggregation of alpha-A crystalline (absorbance screen);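 further: recombinant human alpha-A crystallin (500 µg/ml) preincubated 30 min with compound, then UV-induced aggregation tracked by absorbance at time points from 0 to 120 min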
Format: biochemical
RUN PARAMETERS: 200 μM; Ca+2 and UVC induced aggregation of alpha-A crystalline; read-out: Percent protection (at 200 μM)
READOUT NAME: inhibition at 200 µM (%)

# COMPOUND, MEASUREMENT TARGET, ASSAY VALUE
measured = [
    ("O=C(c1ccccc1)c1ccc(O)c(O)c1 [CAP1347]", "alpha-A crystalline (Homo sapiens)", 13),
    ("COc1cc(CC2NCCc3cc(O)c(O)cc32)cc(OC)c1OC (centres unmarked) [CAP1058]", "alpha-A crystalline (Homo sapiens)", -27),
    ("COc1ccc(CCNC(=O)CCCC(=O)NCOc2ccc(OC)cc2)cc1 [CAP1229]", "alpha-A crystalline (Homo sapiens)", 22),
    ("O=c1c(O)c(-c2ccc(O)c(O)c2)oc2cc(O)ccc12 [CAP1053]", "alpha-A crystalline (Homo sapiens)", 52),
    ("C[C@@](Cc1ccc(O)c(O)c1)(NN)C(=O)O [CAP1055]", "alpha-A crystalline (Homo sapiens)", 1),
    ("CC(=O)Oc1cc2cc[nH]c2cc1OC(C)=O [CAP1517]", "alpha-A crystalline (Homo sapiens)", 40),
    ("COc1ccc(CC(=O)NC2CCCCCCCCCCC2)cc1OC [CAP1279]", "alpha-A crystalline (Homo sapiens)", 5),
    ("Oc1cc2cc[nH]c2cc1O [CP1194]", "alpha-A crystalline (Homo sapiens)", 25),
    ("CC(=O)c1cc(C)cc([N+](=O)[O-])c1O [CAP3071]", "alpha-A crystalline (Homo sapiens)", 30),
    ("CCCCCCCCCCCCCCCCCC(=O)NCCc1ccc(O)c(O)c1 [CAP1241]", "alpha-A crystalline (Homo sapiens)", 135),
    ("COc1ccc(CCNC(=O)CCC2CCCCC2)cc1OC [CAP1274]", "alpha-A crystalline (Homo sapiens)", 55),
]
